For each record, write down the corresponding % inhibition (0.0001%).
# System: rat cytochrome P4503A
# Test context: oil ingredient at 0.0001 wt % (Table 2)
Numbers only, in %.

Please review the following examples before continuing.
CC1=CCC(C(C)(C)O)CC1 (stereo not drawn); 13.4
CC1(C)C(=O)[C@]2(C)CC[C@H]1C2 [Fenchone-(IR)-(-)]; 14

Hi there! I need % inhibition (0.0001%) for each item below, if you can.
1. CC12CCC(CC1)C(C)(C)O2
2. CC1=CC=C(C(C)C)CC1
3. CC1=CCC(O)(C(C)C)CC1 (stereo not drawn)
4. C=C(C)[C@H]1CC=C(C)C(=O)C1 [Carvone-(S)-(+), p-Mentha-6,8-dien-2-one]

Outgoing:
38
-6
3.81
30

----------
Field: % inhibition (0.0001%). Provide a value for each of the compounds that follow.
# Tested on: rat cytochrome P4503A
# Test context: oil ingredient at 0.0001 wt % (Table 2)
One number for each entry, in %.

CC1(C)[C@H]2CC[C@]1(C)[C@H](O)C2 [Borneol-(IS)-endo(-), 1,7,7-Trimethylbicyclo[2.2.1]heptan-2-ol]; 20
CC(C)=CCCC(C)CCO (stereo not drawn); 41
COc1cc(CNC(=O)CCCC/C=C/C(C)C)ccc1O [Capsaicin, trans-8-Methyl-N-vanillyl-6 nonenamide]; 27
C=CCc1ccc(OC)cc1; 7
COC(=O)c1ccccc1N [Methyl Anthranilate, Methyl 2-aminobenzoate]; -7

Below is a list of compounds. For each, state its recorded % inhibition (0.0001%).
1. C=C1CC/C=C(\C)CC[C@@H]2[C@@H]1CC2(C)C [Caryophyllene, trans-(-), β Caryophyllene]
2. CCOC(=O)/C=C/c1ccccc1 [Ethyl Cinnamate, trans-]
3. C=CC(C)(O)CCC=C(C)C (racemic) [Linalcol-(±), 3,7-Dimethyl-1,6-octadien-3-ol]
4. C=CC(=C)CCC=C(C)C
5. C=CCc1ccc(O)c(OC)c1
6. C=C1CC[C@H]2C[C@@H]1C2(C)C [Pinene-(IS)-(-)-β]

Outgoing:
26
-13
41
0
9.8
-10

Can you give me % inhibition (0.0001%) for all of these, one by one?
1. CC1=CCC2C(C1)C2(C)C (stereo not drawn)
2. CC(C)=CCC/C(C)=C/C=O
3. C=C1C2CCC(C2)C1(C)C (single isomer, unassigned) [Camphene-(+)]

Outgoing:
-26
44
-49

Incoming: Look up % inhibition (0.0001%) for this compound: C=C(C)[C@@H]1CC=C(C)C(=O)C1 [Carvone-(R)-(-), p-Mentha-6,8-dien-2-one]
Outgoing: 27
